The values you see were collected from PubChem BioAssay (NCI).

- Test system: CAKI-1 renal
- test_details: NCI-60 one-dose screen, 48 h
- condition: 10 µM unless noted
About 83,000 compounds went through this panel and 20% of them were active in at least one assay; those are over-represented in the sample as a whole. Active and inactive are the calls of the source. Rule for the calls: active = growth percent below 10; inactive = the rest.
Entry note: the call must match one of active, inactive

Please review the following examples before continuing.
[[record]]
smiles = "Cn1cc(-c2nnc(-c3cn(C)c4ncc(Br)cc34)o2)c2ccccc21"
label_value = "inactive"

[[record]]
smiles = "Nn1c(Nc2ccc(S(=O)(=O)Nc3ncccn3)cc2)nnc(/C=C/c2c(O)ccc3ccccc23)c1=O"
label_value = "inactive"

[[record]]
smiles = "CCOC(=O)Nc1ccc2c(c1)/C(=N\\NC(=S)NC)c1ccccc1-2"
label_value = "inactive"

[[record]]
smiles = "CN(C)CCCNc1nc(-c2cccc(C(Cl)(Cl)Cl)c2)nc(C(Cl)(Cl)Cl)n1"
label_value = "inactive"

[[record]]
smiles = "CN(C)c1ccc(-c2ccc(-c3ccc(C(=N)N)cc3)s2)cc1"
label_value = "inactive"

[[record]]
smiles = "CCCOc1ccc(-c2nc(-c3ccc(N)cc3)cs2)cc1"
label_value = "inactive"

[[record]]
smiles = "Nc1cc(Cl)cc2cccnc12"
label_value = "inactive"

[[record]]
smiles = "CC1(C)NCCC[C@]2(C)[C@H]3C=CC4=C5C[C@](C)(CO)CC[C@]5(C)CC[C@@]4(C)[C@]3(C)CC[C@@H]12"
label_value = "active"


Problem: Call for entry CC(C)[C@H]1CCC2=C3CC[C@]45OC(=O)[C@@]6(CCC(C)(C)C[C@H]64)CC[C@@]5(C)[C@]3(C)CC[C@@]21C :
Solution: inactive

Problem: Call for entry Cc1ccc(S(=O)(=O)Oc2ccc(Br)cc2Br)cc1 :
Solution: inactive

Problem: Call for entry Cc1ccc(NCCN2CCCCC2)c2c(=O)c3ccccc3sc12 :
Solution: inactive

Problem: Call for entry CCOc1ccc(S(=O)(=O)Nc2ccc3c(c2)N(S(=O)(=O)CC)CCC3)cc1 :
Solution: inactive

Problem: Call for entry COc1ccc(/C=C(/C2=NCCN2)n2ccc3ccccc32)cc1 :
Solution: inactive

Problem: Call for entry Clc1ccccc1/C=N\Nc1ccccn1 :
Solution: inactive

Problem: Call for entry NC1=NC(=O)NC1(c1ccccc1)c1ccccc1 :
Solution: inactive

Problem: Call for entry C[C@H]1[C@H](C)CC[C@]2(C(=O)O)CC[C@]3(C)C(=CC[C@@H]4[C@@]5(C)C/C(=C/c6ccco6)C(=O)C(C)(C)[C@@H]5CC[C@]43C)[C@H]12 :
Solution: active

Problem: Call for entry NC(=O)c1c(NC(=O)COC(=O)Cc2ccccc2F)sc2c1CCC2 :
Solution: inactive

Problem: Call for entry COc1cc2c(O)n(CCCN3CCOCC3)c3c4cnc5cccc(c(=O)c3c2cc1OC)c54 :
Solution: inactive
